Measured log10(GI50) on HCT-15 follows.
# values: log10(GI50), units µM

smiles string: [N-]=[N+]=Nc1c([N+](=O)[O-])c(Cl)nc2ccccc12
log10(GI50): 0.26
--
smiles string: O=Cc1cc([N+](=O)[O-])no1
log10(GI50): 1.57
--
smiles string: CCC1=C(C)/C(=C/c2[nH]c(CBr)c(CC)c2C)N=C1CBr
log10(GI50): 0.94
--
smiles string: O=C1C(=O)N(c2ccc(Cl)c(Cl)c2)C(=O)C(=O)C1c1nc2ccccc2s1
log10(GI50): 1.94

Incoming: What value of measured log10(GI50) is listed for "CC1=Cc2ccc(C)cc2C(=O)C1=O" ?
Outgoing: 1.29

----------
System: UACC-62
experiment notes: NCI tumour cell line growth inhibition, 48 h
Activity calls are given as the source filed them. Rule as the data show it: active = GI50 up to about 1.1 µM and inactive = higher.
Pick one and only one: active, inactive

// below: answered compounds
compound: N=S(c1ccccc1)c1ccccc1[N+](=O)[O-] (stereo not drawn)
assigned label: inactive
--
compound: N#Cc1cc([N+](=O)[O-])ccc1NC(=O)C(=O)C(C(=O)c1ccc2ccccc2c1)C1OCc2ccccc21 (stereo not drawn)
assigned label: inactive
--
compound: Cc1cccc2c1C(=O)C(C1OC(=O)c3ccccc31)C2 (stereo not drawn)
assigned label: inactive
--
compound: O=C(O)COc1c(Cl)cc(Cl)c(C(c2c(Cl)cc(Cl)c(OCC(=O)O)c2Cl)C(Cl)(Cl)Cl)c1Cl
assigned label: inactive
--
compound: O=C(CCN(C(=O)O)S(=O)(=O)c1ccc(NC(=O)c2ccccc2)cc1)Nc1ccccc1
assigned label: inactive
--
compound: OCCOc1ccc(-c2cc(-c3ccccn3)nc(-c3ccccn3)c2)cc1
assigned label: active

Incoming: Any idea what this test logged for "Cc1ccc(S(=O)(=O)N/N=C/C2(c3ccccc3)c3ccccc3-c3ccccc32)cc1" ?
Outgoing: inactive

Incoming: Any idea what this test logged for "O=C1C(=O)N(c2ccc(Cl)c(Cl)c2)C(=O)C(=O)C1c1nc2ccccc2s1" ?
Outgoing: inactive

----------
Tested on: OVCAR-8
experiment notes: NCI tumour cell line growth inhibition, 48 h
Calls of active or inactive are those of the source. No stated cut-off is given here; in the data, active = GI50 up to about 1.1 µM and inactive = higher.
property measured: GI50

Field: example entries. Status: answers known.
compound: O=S(=O)(CC(Cl)c1ccccc1)c1nc2ccccc2s1 (stereo not given)
property measured: GI50
value: 7.96 µM (inactive)
--
compound: CC(C)(C)c1ccc(S(=O)(=O)N2C(c3cccc(C4CC[C@@H](C(=O)O)N4S(=O)(=O)c4ccc(C(C)(C)C)cc4)c3)CC[C@H]2C(=O)O)cc1 (stereo not given in full)
property measured: GI50
value: 67.5 µM (inactive)
--
compound: ClCCN(CC#CCCCC#CCN(CCCl)CCCl)CCCl
property measured: GI50
value: 11 µM (inactive)
--
compound: C(=N\c1cnc2ccccc2c1)/c1ccc2ccccc2n1
property measured: GI50
value: > 100 µM (inactive)

With those in mind, consider the next compound.
Incoming: What value of measured GI50 is listed for "Cc1ccc(S(=O)(=O)NCCCN(CCCNS(=O)(=O)c2ccc(C)cc2)S(=O)(=O)c2ccc(C)cc2)cc1" ?
Outgoing: > 100 µM (inactive)

----------
# Lookup of reported GI50 keyed by entry
Test system: SF-295
experiment notes: NCI tumour cell line growth inhibition, 48 h
Active and inactive are the calls of the source. Cut-off read from the data, not from the text of the source: active = GI50 up to about 1.1 µM and inactive = higher. Where a SMILES comes first, the peptide text is derived from it.

Field: example entries. Status: answers known.
compound: C=C[C@@H](OCOCC[Si](C)(C)C)[C@@H](CC)OC(CCCOC(=O)C(C)(C)C)OC (stereo partly specified)
tested system: SF-295
GI50: 22 µM (inactive)
//
compound: O=S(=O)(O)CCCc1cccc2ccccc12
tested system: SF-295
GI50: > 100 µM (inactive)
//
compound: N=S(c1ccccc1)c1ccccc1[N+](=O)[O-] (stereo unspecified)
tested system: SF-295
GI50: 18.8 µM (inactive)
//
compound: COc1cc([C@@H]2c3cc4c(cc3[C@@H](NCc3cccc(F)c3)C3COC(=O)[C@@H]32)OCO4)cc(OC)c1O (stereo partly specified)
tested system: SF-295
GI50: 2.24 µM (inactive)
//
compound: C=CCN1C(=O)CC2[C@@H]3CCc4cc(O)ccc4C3CC[C@]2(C)C1=O (stereo partly specified)
tested system: SF-295
GI50: > 10 µM (inactive)

Incoming: What value of measured GI50 is listed for "CC1=NN2C(c3ccc([N+](=O)[O-])cc3)=CSC2=NC(C)(C)C1" ?
Outgoing: > 100 µM (inactive)

Incoming: What value of measured GI50 is listed for CCCCCC1CC=CC(=O)O1 (stereo unspecified) ?
Outgoing: 11.5 µM (inactive)

Incoming: What value of measured GI50 is listed for COC(=O)c1ccc(C)cc1C1CN=NC12Cc1cc(C)c(C)cc1C2=O (stereo unspecified) ?
Outgoing: 47.3 µM (inactive)

Incoming: What value of measured GI50 is listed for "CC(=O)n1nc(-c2nc3ccccc3nc2Cl)cc1Cl" ?
Outgoing: 29.6 µM (inactive)

Incoming: What value of measured GI50 is listed for "N#CSCc1cccc(Nc2cc(=O)[nH]c(=O)[nH]2)c1" ?
Outgoing: > 100 µM (inactive)

Incoming: What value of measured GI50 is listed for O=C(N/N=C(\C1=Nc2ccc(Cl)cc2NC1O)C(O)/C=C/c1ccccc1)c1ccncc1 (stereo unspecified) ?
Outgoing: > 100 µM (inactive)

Incoming: What value of measured GI50 is listed for "C/C(=N\NS(=O)(=O)c1ccc(C)cc1)c1c(O)cc(C)oc1=O" ?
Outgoing: > 100 µM (inactive)

Incoming: What value of measured GI50 is listed for CC1NC(=O)CNC(=O)CNC(=O)C(Cc2ccc(O)cc2)NC(=O)C(C(C)C)NC(=O)C(C)NC1=O (stereo unspecified) (cyclo(GGAAVY); configuration not given here) ?
Outgoing: > 100 µM (inactive)

Incoming: What value of measured GI50 is listed for CC(O)(c1ccccc1)c1nccc2ccccc12 (stereo unspecified) ?
Outgoing: 55 µM (inactive)

Incoming: What value of measured GI50 is listed for COC12C=CC(CC1)C1C(=O)c3c(C)c(C)n(C)c3C(=O)C12 (stereo unspecified) ?
Outgoing: > 100 µM (inactive)

Incoming: What value of measured GI50 is listed for "CC(=O)O[C@H]1CC[C@@]2(C)C(=CC[C@@H]3[C@@H]2CC[C@]2(C)C(=N/O)/C(=C/c4ccc([N+](=O)[O-])cc4)C[C@@H]32)C1" ?
Outgoing: 3.74 µM (inactive)

Incoming: What value of measured GI50 is listed for "COc1ccc([C@@]2(O)c3c(ccc(O)c3OC)[C@H]2OC)c(OC)c1" ?
Outgoing: 29.2 µM (inactive)

Incoming: What value of measured GI50 is listed for "Nc1cc(O)c2c(c1O)C(=O)C=CC2=O" ?
Outgoing: 17.3 µM (inactive)

Incoming: What value of measured GI50 is listed for Cc1ccc(C)c(N2C/C(=N\NC(=O)CC#N)C(c3nc4ccccc4s3)C(=O)C2=O)c1 (stereo unspecified) ?
Outgoing: > 100 µM (inactive)

Incoming: What value of measured GI50 is listed for "O=c1c2ccc3cccc4c(=O)cc(c5ccccc15)-c2c34" ?
Outgoing: > 100 µM (inactive)

Incoming: What value of measured GI50 is listed for "CCc1n[nH]c(=O)n1/N=C(\C)c1ccc([N+](=O)[O-])cc1" ?
Outgoing: > 100 µM (inactive)

----------
Test system: HCT-116
experiment notes: NCI tumour cell line growth inhibition, 48 h
Calls of active or inactive are those of the source. Cut-off read from the data, not from the text of the source: active = GI50 up to about 1.1 µM and inactive = higher.
property measured: GI50

Field: example entries. Status: answers known.
molecule: C/C(=N\Nc1nnc(S)n1N)c1c(O)cc(C)oc1=O
value: > 100 µM (inactive)
//
molecule: O=c1[nH][nH]c(=O)n1Cc1ccccc1Cn1c(=O)[nH][nH]c1=O
value: > 100 µM (inactive)
//
molecule: O=C1NN(Cc2ccccc2)C(=O)N2CCC[C@@H]12
value: > 100 µM (inactive)
//
molecule: CCOc1ccc(NCC2CC/C(=C\c3ccc(O)cc3)C2=O)cc1 (stereo unspecified)
value: 9.64 µM (inactive)
//
molecule: COc1ccc(S(=O)(=O)N[C@H](C(=O)O)c2ccccc2)cc1
value: > 100 µM (inactive)

Incoming: What value of measured GI50 is listed for "COC(=O)C(=O)CC(=O)CCn1[nH]c(=O)c(Cl)c(Cl)c1=O" ?
Outgoing: > 100 µM (inactive)

----------
Test system: SW-620
experiment notes: NCI tumour cell line growth inhibition, 48 h
Active and inactive are the calls of the source. Cut-off read from the data, not from the text of the source: active = GI50 up to about 1.1 µM and inactive = higher.
# Lookup of reported GI50 keyed by entry

Field: example entries. Status: answers known.
compound: Cc1cc(C)c(-c2noc(-c3ccc(Cl)cc3)c2C2=NCCN2)c(C)c1
GI50: 32.4 µM (inactive)
--
compound: O=C1/C(=C/c2ccccc2)CCc2ccc(Cl)nc21
GI50: 3.98 µM (inactive)

Incoming: What value of measured GI50 is listed for "O=C1c2cc(-c3ccccc3)cnc2S(=O)(=O)N1c1ccc(Br)cc1" ?
Outgoing: 81.8 µM (inactive)

Incoming: What value of measured GI50 is listed for CC12CCC(C(=O)OC1=O)C2(C)C (stereo not drawn) ?
Outgoing: > 100 µM (inactive)

Incoming: What value of measured GI50 is listed for "O=c1[nH][nH]c(=O)n1Cc1ccccc1Cn1c(=O)[nH][nH]c1=O" ?
Outgoing: > 100 µM (inactive)
